# procedureSummary: Plasma AMG 232 pharmacokinetics (HPLC-MS, non-compartmental analysis)
# Format: in vivo, human
# experimentalSetup: human, plasma, oral, 60 mg, Day 1, dose escalation, 60 mg (n = 2–4); read-out: AUC24h, mean (SD)
quantityKind: AUC(0-t) (ng·h/mL)
// note: answer is a bare numeric in ng·h/mL

Recorded AUC(0-t) (compound CC(C)[C@@H](CS(=O)(=O)C(C)C)N1C(=O)[C@@](C)(CC(=O)O)C[C@H](c2cccc(Cl)c2)[C@H]1c1ccc(Cl)cc1 ): 2950

* * *

# procedureSummary: Plasma AMG 232 pharmacokinetics (HPLC-MS, non-compartmental analysis)
# Type: in vivo, human
# experimentalSetup: human, plasma, oral, 240 mg, Day 1, 240-mg dose expansion, DDLPS (n = 6–10); read-out: tmax, median (range)
quantityKind: Tmax (h)
// note: answer is a bare numeric in h

Recorded Tmax (molecule CC(C)[C@@H](CS(=O)(=O)C(C)C)N1C(=O)[C@@](C)(CC(=O)O)C[C@H](c2cccc(Cl)c2)[C@H]1c1ccc(Cl)cc1 ): 2

* * *

# procedureSummary: Plasma AMG 232 pharmacokinetics (HPLC-MS, non-compartmental analysis)
# Type: in vivo, human
# experimentalSetup: human, plasma, oral, 240 mg, Day 7, 240-mg dose expansion, Total (n = 47–67); read-out: Cmax, mean (SD)
quantityKind: Cmax (ng/mL)
// note: answer is a bare numeric in ng/mL

Recorded Cmax (compound CC(C)[C@@H](CS(=O)(=O)C(C)C)N1C(=O)[C@@](C)(CC(=O)O)C[C@H](c2cccc(Cl)c2)[C@H]1c1ccc(Cl)cc1 ): 1420

* * *

# procedureSummary: Plasma AMG 232 pharmacokinetics (HPLC-MS, non-compartmental analysis)
# Type: in vivo, human
# experimentalSetup: human, plasma, oral, 360 mg, Day 1, dose escalation, 360 mg (n = 3–4); read-out: tmax, median (range)
quantityKind: Tmax (h)
// note: answer is a bare numeric in h

Recorded Tmax (compound CC(C)[C@@H](CS(=O)(=O)C(C)C)N1C(=O)[C@@](C)(CC(=O)O)C[C@H](c2cccc(Cl)c2)[C@H]1c1ccc(Cl)cc1 [AMG 232] ): 2

* * *

# procedureSummary: Plasma AMG 232 pharmacokinetics (HPLC-MS, non-compartmental analysis)
# Assay type: in vivo, human
# experimentalSetup: human, plasma, oral, 240 mg, Day 7, 240-mg dose expansion, Other Solid (n = 9–16); read-out: Vz/F, mean (SD)
quantityKind: Vd/F (L)
// note: answer is a bare numeric in L

Recorded Vd/F (compound CC(C)[C@@H](CS(=O)(=O)C(C)C)N1C(=O)[C@@](C)(CC(=O)O)C[C@H](c2cccc(Cl)c2)[C@H]1c1ccc(Cl)cc1 ): 353

* * *

# procedureSummary: Plasma AMG 232 pharmacokinetics (HPLC-MS, non-compartmental analysis)
# Type: in vivo, human
# experimentalSetup: human, plasma, oral, 60 mg, Day 7, dose escalation, 60 mg (n = 2–4); read-out: Vz/F, mean (SD)
# Description: Non-compartmental analysis was performed using WinNonlin Professional software, version 6.3. Parameters were summarized descriptively.
quantityKind: Vd/F (L)
// note: answer is a bare numeric in L

Recorded Vd/F (compound CC(C)[C@@H](CS(=O)(=O)C(C)C)N1C(=O)[C@@](C)(CC(=O)O)C[C@H](c2cccc(Cl)c2)[C@H]1c1ccc(Cl)cc1 ): 360
